Source: PubChem BioAssay (NCI)

Tested on: 786-0 renal
Protocol description: NCI tumour cell line growth inhibition, 48 h
The compounds listed here are annotated with their TGI.
Observation type: TGI

[
  {
    "Compound": "ClCc1ccccc1CSc1ncnc2nc[nH]c12",
    "Result": "> 60 µM"
  },
  {
    "Compound": "CN(C)S(=O)(=O)Nc1ccccn1",
    "Result": "> 100 µM"
  },
  {
    "Compound": "CC(C)CCNC(=O)c1ccc(CNC(=O)/C=C/c2ccc(OCc3ccccc3)cc2)cc1",
    "Result": "> 100 µM"
  },
  {
    "Compound": "Cc1cc(C)nc(NS(=O)(=O)c2ccc(NC(=O)c3cccc4c(=O)c5ccccc5[nH]c34)cc2)n1",
    "Result": "36.8 µM"
  },
  {
    "Compound": "N#Cc1c(O)c2c(c(O)c1C#N)C(=O)c1ccccc1C2=O",
    "Result": "5.45 µM"
  },
  {
    "Compound": "CCCCCCCCCCCCOC1C(CNCC2OC3OC(C)(C)OC3C2NC(=O)Nc2ccc(C(=O)OCC)cc2)OC2OC(C)(C)OC21 (configuration not stated)",
    "Result": "11.5 µM"
  },
  {
    "Compound": "CC1=CCCC(OC(N)=O)C1 (configuration not stated)",
    "Result": "> 100 µM"
  },
  {
    "Compound": "Fc1ccc(-c2nn(-c3ccccc3)cc2-c2nc3ccccc3o2)cc1",
    "Result": "> 100 µM"
  },
  {
    "Compound": "Cc1c(N2C(=O)/C(=C\\c3ccccc3O)N=C2c2ccccc2)c(=O)n(-c2ccccc2)n1C",
    "Result": "> 100 µM"
  },
  {
    "Compound": "CCCCn1/c(=N/C(=S)N(C)C)ss/c1=N\\C(=S)N(C)C",
    "Result": "> 100 µM"
  },
  {
    "Compound": "CC(=O)OCC1OC(n2c(=S)[nH]c(-c3ccccc3)c(C#N)c2=O)C(OC(C)=O)C(OC(C)=O)C1OC(C)=O (configuration not stated)",
    "Result": "> 100 µM"
  },
  {
    "Compound": "CCN(CC)CCCn1c(=O)c2cccnc2n2c3c(=O)n(C)c(=O)n(C)c3nc12",
    "Result": "> 100 µM"
  },
  {
    "Compound": "CC(C)(CO)N1C(=O)c2ccccc2C1(O)c1ccc(Cl)cc1 (configuration not stated)",
    "Result": "> 100 µM"
  },
  {
    "Compound": "O=C(Nc1ccccc1[N+](=O)[O-])c1ccccc1",
    "Result": "> 100 µM"
  },
  {
    "Compound": "O=c1c2cc(I)ccc2[nH]c(=S)n1Cc1ccccc1",
    "Result": "63 µM"
  },
  {
    "Compound": "O=C1CC[C@H]2CNC(=O)C[C@H]2C1",
    "Result": "> 100 µM"
  },
  {
    "Compound": "CC(=O)/C(=C/n1c(=S)sc2ccccc21)C(=O)Nc1ccccc1C",
    "Result": "> 100 µM"
  },
  {
    "Compound": "Cc1cccc(N(CCC#N)S(=O)(=O)c2ccccc2)c1",
    "Result": "> 100 µM"
  },
  {
    "Compound": "CN1CCCNCCN(CCc2ccccn2)CCCN(C)CC1",
    "Result": "53.9 µM"
  },
  {
    "Compound": "Cc1ccc(C2=Nc3c(c(C)nn3-c3ccccc3)N=C(C(=O)O)C2)cc1",
    "Result": "> 10 µM"
  },
  {
    "Compound": "CN1C(=O)CN(NC(=O)C2=C(O)c3ccc(Br)cc3S(=O)(=O)N2)C1=S",
    "Result": "> 100 µM"
  },
  {
    "Compound": "NNC(=O)c1cnn(-c2ccnc3c(C(F)(F)F)cccc23)c1N",
    "Result": "> 100 µM"
  }
]
